Listed below: inhibition at 1 µM values for each entry.
molecular target: hFAAH (Homo sapiens); construct: expressed in transfected cells; host or cells: HEK293-TRex (Invitrogen) stably transfected with hFAAH in the pcDNA5-Tet-off vector, or T84 human colon epithelial cells (endogenous hFAAH); used as a microsomal preparation; test: Fluorimetric assay with hFAAH microsomes (enzymatic, fluorescence based); type: biochemical; settings: compound at 1 uM, AA-AMC substrate
Sequence (O00519 whole entry): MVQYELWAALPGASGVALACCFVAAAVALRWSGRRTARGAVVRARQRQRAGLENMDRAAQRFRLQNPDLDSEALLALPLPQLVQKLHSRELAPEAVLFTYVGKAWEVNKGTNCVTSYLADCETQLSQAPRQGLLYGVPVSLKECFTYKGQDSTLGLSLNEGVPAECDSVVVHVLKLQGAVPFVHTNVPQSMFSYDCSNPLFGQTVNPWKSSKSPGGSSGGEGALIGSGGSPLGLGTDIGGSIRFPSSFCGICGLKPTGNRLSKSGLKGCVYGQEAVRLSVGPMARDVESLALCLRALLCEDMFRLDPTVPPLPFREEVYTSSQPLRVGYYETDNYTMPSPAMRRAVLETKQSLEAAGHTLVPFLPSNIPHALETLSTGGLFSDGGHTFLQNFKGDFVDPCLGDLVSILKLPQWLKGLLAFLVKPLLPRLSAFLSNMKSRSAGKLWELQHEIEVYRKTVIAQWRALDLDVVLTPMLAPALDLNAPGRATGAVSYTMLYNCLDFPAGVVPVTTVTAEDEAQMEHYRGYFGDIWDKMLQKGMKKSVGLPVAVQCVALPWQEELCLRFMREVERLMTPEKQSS

| molecule_smiles | tested_on | measured_result |
| --- | --- | --- |
| FC(F)Oc1ccccc1CN1Cc2ncnc(Nc3cnc4ccccc4c3)c2C1 | hFAAH (Homo sapiens) | > 75% |
| Fc1ccccc1CN1Cc2ncnc(Nc3cnc4ccccc4c3)c2C1 | hFAAH (Homo sapiens) | > 75% |
| CCN1Cc2ncnc(Nc3cnc4ccccc4c3)c2C1 | hFAAH (Homo sapiens) | < 25% |
| c1ccc2ncc(Nc3ncnc4c3CN(CC3CCC3)C4)cc2c1 | hFAAH (Homo sapiens) | > 50% |

In the following, a different compound is considered.
// inhibition at 1 µM (hFAAH (Homo sapiens)) for c1ccc2ncc(Nc3ncnc4c3CN(C3CCCC3)C4)cc2c1 = > 50%
